Hey, just so you know, these numbers are from paper PMC10818824.

Field: Binding Constant KA. Provide a value for each of the compounds that follow.
Molecular target: HSA (human serum albumin) (Homo sapiens, UniProt P02768)
Construct: gene ALB; mature single chain of 585 residues, N-terminal Asp, C-terminal Leu; untagged; monomer
Sequence (P02768 25-609): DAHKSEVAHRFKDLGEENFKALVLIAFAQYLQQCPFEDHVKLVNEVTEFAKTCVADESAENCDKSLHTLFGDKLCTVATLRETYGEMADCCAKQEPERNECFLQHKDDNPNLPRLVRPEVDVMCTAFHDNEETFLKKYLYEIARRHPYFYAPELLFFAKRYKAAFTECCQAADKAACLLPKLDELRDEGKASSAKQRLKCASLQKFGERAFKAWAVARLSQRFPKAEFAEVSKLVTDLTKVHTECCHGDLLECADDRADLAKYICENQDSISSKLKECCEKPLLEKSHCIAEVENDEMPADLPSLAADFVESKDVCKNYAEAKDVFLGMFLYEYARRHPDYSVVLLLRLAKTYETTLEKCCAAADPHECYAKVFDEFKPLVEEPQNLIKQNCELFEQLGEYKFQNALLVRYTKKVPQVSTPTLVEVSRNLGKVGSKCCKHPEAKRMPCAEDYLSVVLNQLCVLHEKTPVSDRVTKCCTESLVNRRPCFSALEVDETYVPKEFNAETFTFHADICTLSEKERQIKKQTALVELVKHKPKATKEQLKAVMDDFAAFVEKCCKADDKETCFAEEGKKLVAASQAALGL
Experiment: intrinsic fluorescence quenching, double-log fit
Assay type: binding
Conditions: Tris-HCl pH 7.4, room temperature, 30 min, ex 275 nm; ethanol stocks; KA unit not given
Source text: intrinsic fluorescence quenching, double-log fit on HSA (human serum albumin)
One number for each entry.

These solved cases illustrate the format of a correct answer.
compound	test.system	value.measured
O=C(O)C(F)(F)C(F)(F)C(F)(F)F	HSA (human serum albumin) (Homo sapiens, UniProt P02768)	20.3657
O=S(=O)(O)C(F)(F)C(F)(F)OC(F)(F)C(F)(F)C(F)(F)C(F)(F)C(F)(F)C(F)(F)C(F)(F)C(F)(F)Cl [11Cl-PF3OUdS]	HSA (human serum albumin) (Homo sapiens, UniProt P02768)	127.6145
O=S(=O)(O)C(F)(F)C(F)(F)C(F)(F)F	HSA (human serum albumin) (Homo sapiens, UniProt P02768)	79.4511

INPUT: Report Binding Constant KA for O=S(=O)(O)C(F)(F)C(F)(F)OC(F)(F)C(F)(F)C(F)(F)C(F)(F)C(F)(F)C(F)(F)Cl please.
OUTPUT: 117.112

---

Biological target: HSA (human serum albumin) (Homo sapiens, UniProt P02768)
Construct: gene ALB; mature single chain of 585 residues, N-terminal Asp, C-terminal Leu; untagged; monomer
Assay: intrinsic fluorescence quenching, double-log fit
Assay type: binding
Set-up: unit not given here
Conditions: Tris-HCl pH 7.4, room temperature, 30 min, ex 275 nm; ethanol stocks; KA unit not given
Field: Binding Constant KA. Provide a value for each of the compounds that follow.
Numbers only.

These solved cases illustrate the format of a correct answer.
compound	value.measured
O=S(=O)(O)C(F)(F)C(F)(F)C(F)(F)C(F)(F)C(F)(F)C(F)(F)C(F)(F)C(F)(F)F	394.639
O=S(=O)(O)C(F)(F)C(F)(F)C(F)(F)C(F)(F)F	116.4930
O=S(=O)(O)C(F)(F)C(F)(F)C(F)(F)C(F)(F)C(F)(F)C(F)(F)F	157.9429

INPUT: Report Binding Constant KA for O=C(O)C(F)(F)C(F)OC(F)(F)C(F)(F)C(F)(F)OC(F)(F)F (stereo not shown) please.
OUTPUT: 93.0894
